Each recorded value in this set is attributed to patent US20210253725A1.

Biological target: T1, CD27 expressed on the cell surface (HT1080_CD27 cells) (human, UniProt P26842 20-260); also: test concentration or dose not given here
T1 sequence (looked up): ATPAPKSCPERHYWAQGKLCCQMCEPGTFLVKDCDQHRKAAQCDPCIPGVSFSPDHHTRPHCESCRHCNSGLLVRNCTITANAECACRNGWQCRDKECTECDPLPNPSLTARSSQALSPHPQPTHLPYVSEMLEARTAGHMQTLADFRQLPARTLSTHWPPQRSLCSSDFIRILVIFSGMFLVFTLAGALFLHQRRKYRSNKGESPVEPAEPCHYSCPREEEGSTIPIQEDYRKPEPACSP
Test: cell-based or functional assay
Task for the reader: assign each of the following binders its reported IL-8 [abs. corr.].
Kindly answer with a numeric value in abs. corr., unit omitted.

Form field: reported IL-8 [abs. corr.] of P018.S.03.A.H05 (antibody, V domains shown, V regions on human Ig constant parts; also called AB27_63) VH: QSLEESGGDLVKPGASLTLTCTASGFSFSDRHYMCWVRQAPGKGLEWIGSIYTGKDSIDYASWAKGRFTISKTSSTTVTLQMTSLTAADTATYFCARDLLYGSSSGYLHTWGPGTLVTVSS VL: DIVMTQTPSSVSEPVGGTVTIKCQASHNIYSNLAWYQQKLGQPPKLLIYYASTLASGVPSRFKGSGSGTEYTLTISDLESDDAATYYCQSAYYGSIDITFGGGTEVVAQ
0.401

Can you handle P018.S.03.A.G06 (antibody, V domains shown, V regions on human Ig constant parts; also called AB27_59) VH: QSLEESGGDLVKPGASLTLTCTASGFSFSRNNYMCWVRQAPGKGLESIACIHDGNSVGIYYTTWAKGRFTISKTSSTTVTLQMTSLTVADTATYFCARMSYTNDWDPIWGPGTLVTVSS VL: DIVMTQTPASVEAAVGGTVTIDCQASENIYSLLAWYQQKPGQPPKVLISLASNLASGVPSRFKGSGSGTQFSLTISDLESADAATYYCQGYYYSSSTSYENAFGGGTEVVVS next?
0.56

Can you handle P018.S.06.A.D04 (antibody, V domains shown, V regions on human Ig constant parts; also called AB27_103) VH: QSLEESGGRLVKPDETLTLTCTVSGFDLSSYAVVWVRQAPGKGLEWIGYIYGGSGSTWYASWAKGRFTISKTSSTTVDLKMTSLTTEDTATYFCARAYDSGYIGNSFYAFDPWGPGTLVTVSS VL: DIVMTQTPASVSAAVGGTVTIKCQASQTISSTLAWYQQKPGQPPKLLIYSASTLASGVSSRFKGSGSGPEFTLTISDLESADGGTYTCAGYGTVGVTAFGGGTEVVVR next?
0.444

Can you handle P018.S.02.A.G03 (antibody, V domains shown, V regions on human Ig constant parts; also called AB27_38) VH: QSVEESGGRLVTPGTPLTLTCTVSGFSLSSYVMSWVRQAPGKGLEWIGYIDYGGTAYYASWAKGRFTISKTSTTVELKITSPTIEDTATYFCARGGYGGYILVTGLWGPGTLVTVSS VL: DIVMTQTPASVSEPVGGTVTIKCQASQTIISYLSWYQQKPGQPPKLLIYGASTLASGVPSRFKGSGSVTEYTLTISDLESADAATYYCQTYYGGGPFGNGFGGGTEVVVK next?
-0.061

Can you handle P018.S.07.A.H04 (antibody, V domains shown, V regions on human Ig constant parts; also called AB27_132) VH: QSLEESGGRLVTPGTPLTLTCTVSGLSLSSYDMSWVRQAPGKGLEWIGYIWSGGSTDYASWAKGRFTISKTSTTVDLKIISPTTEDTATYFCARGYVEFDLWGPGTLVTVSS VL: DPVLTQTPPSVSAAVGGTVTINCQSSQSLYSNNYLSWYQQKAGQPPKVLIWPASSLASGVPSRFKGSASGTQFTLTISELQSDDAATYYCQGTFYDSGWLSAFGGGTEVVVK next?
0.158
